// values below are reported pEC50
- target system: human APJ receptor (Homo sapiens, UniProt P35414)
- Construct: expressed in transfected cells
- Sequence (P35414 1-380): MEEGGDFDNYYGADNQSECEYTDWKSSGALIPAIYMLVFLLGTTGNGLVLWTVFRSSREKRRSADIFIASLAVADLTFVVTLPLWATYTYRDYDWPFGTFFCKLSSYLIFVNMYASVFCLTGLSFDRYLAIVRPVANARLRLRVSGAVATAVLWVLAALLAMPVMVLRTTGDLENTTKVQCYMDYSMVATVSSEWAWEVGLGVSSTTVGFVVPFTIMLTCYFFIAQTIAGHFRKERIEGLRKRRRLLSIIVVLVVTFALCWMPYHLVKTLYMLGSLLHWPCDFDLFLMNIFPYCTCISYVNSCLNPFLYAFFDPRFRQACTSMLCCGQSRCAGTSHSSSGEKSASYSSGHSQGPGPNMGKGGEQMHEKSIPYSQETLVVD
- experimental protocol: Intracellular cAMP accumulation assay (APJ hcAMP, HTRF)
- Format: cell-based
- experimental setup: human APJ, cAMP; potency range class; read-out: APJ cAMP Human EC50
pEC50: −log10 of the molar value.

compound	pEC50
O=C(N[C@H](c1ccccc1)C1CC1)c1ccc(-c2c(Cl)cccc2-c2nc3ccccc3[nH]2)c(C(=O)O)c1 (single isomer, unassigned) [Example 229]	7.00 to 8.00
CCC[C@H](NC(=O)c1ccc(-c2c(Cl)cccc2-c2nc3ccccc3[nH]2)c(C(=O)O)c1)c1cccnc1 [Example 190]	7.00 to 8.00
CCCC(NC(=O)c1ccc(-c2c(Cl)cccc2-c2nc3ccccc3[nH]2)c(C(=O)O)c1)c1ccncc1 (single isomer, unassigned) [Example 192]	7.00 to 8.00
CCC[C@@H](NC(=O)c1ccc(-c2c(Cl)cccc2-c2nc3ccc(F)c(F)c3[nH]2)c(C(=O)O)c1)C1CCCCC1 (atropisomer, axis not shown) [Example 159]	> 8.00
CCCC(NC(=O)c1ccc(-c2c(Cl)cccc2-c2nc3ccccc3[nH]2)c(C(=O)O)c1)c1ccccc1OC (stereo not drawn) [Example 225]	> 8.00

q: Any idea what pEC50 was measured for CCCC(NC(=O)c1ccc(-c2cc(Cl)ccc2-c2nc3ccccc3[nH]2)c(C(=O)O)c1)c1ccc(F)cc1 (single isomer, unassigned) [Example 209] ?
a: > 8.00

====

- target system: human APJ receptor (Homo sapiens)
- Construct: expressed in transfected cells
- Sequence (P35414 1-380): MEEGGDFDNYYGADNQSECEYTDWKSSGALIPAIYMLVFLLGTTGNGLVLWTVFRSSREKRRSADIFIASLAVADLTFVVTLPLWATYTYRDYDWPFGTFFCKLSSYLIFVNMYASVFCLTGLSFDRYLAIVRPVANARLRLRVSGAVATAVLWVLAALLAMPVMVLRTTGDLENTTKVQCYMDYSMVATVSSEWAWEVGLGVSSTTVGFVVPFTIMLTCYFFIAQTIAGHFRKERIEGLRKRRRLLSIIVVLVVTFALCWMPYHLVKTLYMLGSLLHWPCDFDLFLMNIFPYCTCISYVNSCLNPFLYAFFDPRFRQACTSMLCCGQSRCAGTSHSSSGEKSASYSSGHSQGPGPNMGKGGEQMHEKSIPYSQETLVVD
- experimental protocol: Intracellular cAMP accumulation assay (APJ hcAMP, HTRF)
- Type: cell-based
- experimental setup: Table 2; HEK293 cells stably expressing human APJ receptor; read-out: APJ cAMP Human EC50
experimental endpoint: EC50

# annotated cases, reported EC50 shown
> print(dat)
                                   molecule  measured.result
1  C[C@@H](NC(=O)c1ccc(-c2cc(Cl)ccc2-c2nc3ccccc3[nH]2)c(C(=O)O)c1)c1cccc(Cl)c1 [Example 72]     10 to 100 nM
2  CCC[C@@H](NC(=O)c1ccc(-c2cc(Cl)ccc2-c2nc3cc(O)ccc3[nH]2)c(C(=O)O)c1)c1ccccc1 [Example 3]          < 10 nM
3  COC[C@@H](NC(=O)c1ccc(-c2ccccc2-c2nc3cc(OC)ccc3[nH]2)c(C(=O)O)c1)c1ccccc1 [Example 64]          < 10 nM

The record that follows has no EC50 shown yet.
q: Consider the molecule shown here: CCC[C@@H](NC(=O)c1ccc(-c2cc(OC)ccc2-c2nc3cc(OC)ccc3[nH]2)c(C(=O)O)c1)c1ccccc1 [Example 59] What is its recorded EC50?
a: < 10 nM

====

- target system: human APJ receptor (Homo sapiens)
- Construct: expressed in transfected cells
- experimental protocol: Intracellular cAMP accumulation assay (APJ hcAMP, HTRF)
- Format: cell-based
- experimental setup: Table 1; HEK293 cells stably expressing human APJ receptor; inhibition of forskolin-mediated cAMP production; read-out: APJ hcAMP EC50
pEC50: −log10 of the molar value.
Readings of pEC50 for the listed molecules

> print(dat)
                                   molecule  measured.result
1  COc1cc2nc(-c3cccc(Cl)c3-c3ccc(C(=O)NC(c4ccc(Cl)cc4)C4CC4)cc3C(=O)NS(C)(=O)=O)[nH]c2cc1F (stereo not drawn)     7.00 to 8.00

q: Find the recorded pEC50 belonging to COC[C@@H](NC(=O)c1ccc(-c2ccccc2-c2nc3cc(C(C)(C)C)ccc3[nH]2)c(C(=O)O)c1)c1ccccc1 and report it.
a: > 8.00

q: Look at this molecule and give its reported pEC50. CCCC(NC(=O)c1ccc(-c2c(Cl)cccc2-c2nc3ccccc3[nH]2)c(C(=O)O)c1)c1ccc(Cl)cc1OC (stereo not drawn) [Example 179]
a: > 8.00

q: # lookup: pEC50 of CCC[C@@H](NC(=O)c1ccc(-c2ccc(F)cc2-c2nc3cc(OC)ccc3[nH]2)c(C(=O)O)c1)c1ccccc1
a: > 8.00

q: Fill blank: measured pEC50 of the molecule CCC[C@@H](NC(=O)c1cc(C(=O)O)c(-c2cc(Cl)ccc2-c2nc3cc(OC)ccc3[nH]2)cc1C)c1ccccc1 is ____.
a: > 8.00

q: Suppose we examine the molecule COc1cc2nc(-c3cccc(Cl)c3-c3ccc(C(=O)N[C@H](c4ccc(Cl)cc4)C4CC4)cc3CO)[nH]c2cc1F (single isomer, unassigned) ; what pEC50 value has been reported?
a: 7.00 to 8.00

====

- target system: human APJ receptor (Homo sapiens, UniProt P35414)
- Construct: expressed in transfected cells
- Sequence (P35414 1-380): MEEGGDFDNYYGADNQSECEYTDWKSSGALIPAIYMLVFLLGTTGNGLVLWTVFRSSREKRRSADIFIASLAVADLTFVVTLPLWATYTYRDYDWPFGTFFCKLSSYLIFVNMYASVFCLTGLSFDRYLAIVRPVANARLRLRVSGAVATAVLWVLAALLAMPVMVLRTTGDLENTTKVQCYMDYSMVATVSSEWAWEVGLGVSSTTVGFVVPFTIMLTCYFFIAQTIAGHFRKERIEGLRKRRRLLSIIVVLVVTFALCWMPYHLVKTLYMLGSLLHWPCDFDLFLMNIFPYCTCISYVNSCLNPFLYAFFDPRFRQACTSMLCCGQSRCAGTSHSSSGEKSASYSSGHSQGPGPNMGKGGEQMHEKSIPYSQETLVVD
- experimental protocol: Intracellular cAMP accumulation assay (APJ hcAMP, HTRF)
- Format: cell-based
- experimental setup: Table 3; HEK293 cells stably expressing human APJ receptor; read-out: APJ cAMP Human EC50
In this section we review reported EC50 values for a set of compounds.

Guide cases for EC50, answers given:
compound	EC50
CCCC(NC(=O)c1ccc(-c2c(Cl)cccc2-c2nc3cc(OC)c(OC)cc3[nH]2)c(C(=O)O)c1)c1ccccc1 (centres unmarked) [Example 93]	< 10 nM
CCC[C@@H](NC(=O)c1ccc(-c2c(F)cccc2-c2nc3cc(C(C)(C)C)ccc3[nH]2)c(C(=O)O)c1)c1ccccc1 [Example 145]	< 10 nM
CCC[C@@H](NC(=O)c1ccc(-c2c(Cl)cccc2-c2nc3ccccc3[nH]2)c(C(=O)O)c1)c1ccccc1 (atropisomer, axis not shown) [Example 81]	< 10 nM

q: If you can, please state the reported EC50 value of CCC[C@@H](NC(=O)c1ccc(-c2c(Cl)cccc2-c2ncc(-c3ccncc3)[nH]2)c(C(=O)O)c1)c1ccccc1 (atropisomer, axis not shown) [Example 107] .
a: 10 to 100 nM

====

- target system: human APJ receptor (Homo sapiens, UniProt P35414)
- Construct: expressed in transfected cells
- experimental protocol: Intracellular cAMP accumulation assay (APJ hcAMP, HTRF)
- Assay type: cell-based
- experimental setup: Table 1; HEK293 cells stably expressing human APJ receptor; inhibition of forskolin-mediated cAMP production; read-out: APJ hcAMP EC50
# Lookup of reported EC50 keyed by entry

q: GET /values?readout=EC50&item= CCCC(NC(=O)c1ccc(-c2c(Cl)cccc2-c2nc3ccccc3[nH]2)c(C(=O)O)c1)c1ccc(Cl)cc1F (single isomer, unassigned) [Example 184]
a: < 10 nM

q: Need EC50, item CCC[C@H](NC(=O)c1ccc(-c2c(Cl)cccc2-c2nc3ccccc3[nH]2)c(C(=O)O)c1)c1ccccc1F
a: < 10 nM

q: # input molecule: CCCC(NC(=O)c1ccc(-c2c(Cl)cccc2-c2nc3ccccc3[nH]2)c(C(=O)O)c1)c1ccc(F)cc1OC (single isomer, unassigned) ; wanted: its EC50
a: < 10 nM

q: So what does the record say about EC50 for O=C(NC(C1CCCCC1)C1CC1)c1ccc(-c2c(Cl)cccc2-c2nc3ccccc3[nH]2)c(C(=O)O)c1 (single isomer, unassigned) ?
a: < 10 nM

q: Dear colleague, I am looking for the recorded EC50 of the following molecule: CCC[C@@H](NC(=O)c1ccc(-c2cc(Cl)ccc2-c2nc3ccncc3[nH]2)c(C(=O)O)c1)c1ccccc1
a: 10 to 100 nM
